Target: Coagulation factor XI (Homo sapiens, UniProt P03951)
Sequence (P03951 19-387 limits assumed): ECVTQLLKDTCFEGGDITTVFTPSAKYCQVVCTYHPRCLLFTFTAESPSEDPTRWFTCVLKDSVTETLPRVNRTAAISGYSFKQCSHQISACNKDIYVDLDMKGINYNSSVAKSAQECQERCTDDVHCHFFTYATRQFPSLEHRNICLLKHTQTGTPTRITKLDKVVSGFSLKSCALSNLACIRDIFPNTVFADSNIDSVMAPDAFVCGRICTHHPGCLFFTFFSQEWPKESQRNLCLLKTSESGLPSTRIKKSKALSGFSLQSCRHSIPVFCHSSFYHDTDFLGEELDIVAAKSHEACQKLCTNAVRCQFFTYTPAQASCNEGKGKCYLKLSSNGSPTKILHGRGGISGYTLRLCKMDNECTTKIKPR
Sequence (P03951 388-625 limits assumed): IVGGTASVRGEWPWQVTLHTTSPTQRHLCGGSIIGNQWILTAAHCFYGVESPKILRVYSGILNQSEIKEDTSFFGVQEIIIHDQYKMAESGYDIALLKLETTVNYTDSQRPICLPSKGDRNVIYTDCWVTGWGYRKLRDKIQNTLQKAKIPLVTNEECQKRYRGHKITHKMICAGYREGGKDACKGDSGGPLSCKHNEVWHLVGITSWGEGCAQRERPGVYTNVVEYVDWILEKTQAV
Assay: Inhibition of human coagulation factor 11a using p-nitroaniline as substrate assessed as substrate hydrolysis by spectrophotometrically
Property: pKi; scope: individual molecules
Note on units: pKi is unitless, being -log10 of a concentration expressed in mol/L.

Some entries whose results are on file:
Molecule	Meas Value
NC[C@H]1CC[C@H](C(=O)N[C@@H](Cc2ccccc2)c2nc(-c3cccc(C(N)=O)c3)c[nH]2)CC1	5.96
CC(C)CC(=O)Nc1cc(-c2ccc(C(N)=O)cc2C(=O)O)cc([C@@H]2C[C@](C)(c3ccccc3)c3cc(C(=N)N)ccc3N2)c1	9.70
N#Cc1cccc(-c2c[nH]c([C@H](Cc3ccccc3)NC(=O)[C@H]3CC[C@H](CN)CC3)n2)c1	5.95

Inquiry: Entry NC[C@H]1CC[C@H](C(=O)N[C@@H](Cc2ccccc2)c2nc(-c3ccc(C(N)=O)cc3)c(Br)[nH]2)CC1.O=C(O)C(F)(F)F has what pKi?
Reply text: 8.05

Inquiry: Entry NC[C@H]1CC[C@H](C(=O)N[C@@H](Cc2ccccc2)c2nc(-c3ccc(C(=O)O)cc3)c[nH]2)CC1 (mixture of isomers) has what pKi?
Reply text: 6.23

Inquiry: Entry NC[C@H]1CC[C@H](C(=O)N[C@@H](Cc2ccccc2)c2c[nH]c(-c3ccccc3)n2)CC1 has what pKi?
Reply text: 5.79

Inquiry: Entry CNC(=O)c1ccc(-c2c[nH]c([C@H](Cc3ccccc3)NC(=O)[C@H]3CC[C@H](CN)CC3)n2)cc1 has what pKi?
Reply text: 6.46
